Measured values drawn from patent US20240207421A1 for this set.

# System: Human MPZ
# Sequence (P25189 30-153 limits assumed): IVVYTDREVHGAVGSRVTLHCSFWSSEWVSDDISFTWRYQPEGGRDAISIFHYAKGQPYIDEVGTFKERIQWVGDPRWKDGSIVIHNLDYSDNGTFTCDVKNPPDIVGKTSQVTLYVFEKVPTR
# assay.overview: Phage display library screening (Example 2, Python script analysis), binding to Human MPZ
# conditions: combined unique sequence count, Python/R script analysis
Entries and their measured Count follow.
property.name: Count

> print(dat)
                               substance  property.name  reported.result
1  CRVGVTSAC (Human MPZ-binding peptide)          Count               41
2    KRNLWDI (Human MPZ-binding peptide)          Count               40
3    WTSVATA (Human MPZ-binding peptide)          Count               41
4    SETESYM (Human MPZ-binding peptide)          Count               41
5    VHTPYRS (Human MPZ-binding peptide)          Count               41
